tested on: OVCAR4; experiment: drug sensitivity score (DSS) from 5-point dose-response viability curve (DSS (area-under-curve based score)); higher = more sensitive (stronger growth inhibition or killing); extreme values may be limits of the assay; settings: exposure time: 72 h; concentration range: 5 concentrations over 10,000-fold range

# smilesRepresentation, drug sensitivity score
measured = [
    ("C[C@@H]1C[C@H]2[C@@H]3CCC4=CC(=O)C=C[C@]4(C)[C@@]3(F)[C@@H](O)C[C@]2(C)[C@@]1(O)C(=O)CO", 0),
    ("CC#CC(=O)N1CCC[C@H]1c1nc(-c2ccc(C(=O)Nc3ccccn3)cc2)c2c(N)nccn12", 2.1),
    ("CC1(COc2ccc3c(c2)ncn3-c2ccc3cccc(N4CCC(N)CC4)c3n2)COC1", 2.9),
    ("C=CC(=O)N1CC/C(=C\\c2ccc(F)c([N+](=O)[O-])c2)C(=O)/C(=C/c2ccc(F)c([N+](=O)[O-])c2)C1", 18.7),
    ("Cc1ccc(NC(=O)c2ccc(CN3CCN(C)CC3)cc2)cc1Nc1nccc(-c2cccnc2)n1", 0),
    ("O=c1[nH]cc(F)c(=O)[nH]1", 0),
    ("Nc1nc(Cl)nc2c1ncn2[C@@H]1O[C@H](CO)[C@@H](O)[C@@H]1F", 0),
    ("CN(c1ncccc1CNc1nc(Nc2ccc3c(c2)CC(=O)N3)ncc1C(F)(F)F)S(C)(=O)=O", 4.7),
    ("C[C@]1(c2nc3c(C(N)=O)cccc3[nH]2)CCCN1", 0),
    ("Oc1nc(-c2ccc(C(F)(F)F)cc2)nc2c1CSCC2", 3.6),
    ("CC(C)(O)CNc1nc(Nc2ccnc(C(F)(F)F)c2)nc(-c2cccc(C(F)(F)F)n2)n1", 0),
    ("N#Cc1ccc2[nH]c(O)c(-c3ccc(CN4CCOCC4)cn3)c2c1", 0),
    ("CNC(=O)c1cc(COc2nnc(Nc3ccc(Cl)cc3)c3ccoc23)ccn1", 0),
    ("O=C1c2c(O)ccc(O)c2C(=O)c2c(NCCNCCO)ccc(NCCNCCO)c21", 4.2),
    ("CC(C)N(C[C@H]1O[C@@H](n2cnc3c(N)ncnc32)[C@H](O)[C@@H]1O)[C@H]1C[C@@H](CCc2nc3cc(C(C)(C)C)ccc3[nH]2)C1", 0),
    ("C=CC(=O)N1CCC[C@@H](n2nc(-c3ccc(Oc4ccccc4)cc3)c3c(N)ncnc32)C1", 1.5),
]
